# Tested on: Mus musculus
# assay.protocol: On set and incidence of arthritis in the Mouse Type II collagen model at 0.5 dose mg/kg on day 44, expressed as number of mice treated out of 12 tested
# Assay type: functional
measurement.label: No. of mice
Response field accepts a number only; no unit should be typed.

Past entries and their recorded results:
compound: CCCC[C@H](NC(=O)[C@@H](N)CCCN=C(N)N)C(=O)N[C@@H](CC(=O)O)C(=O)N[C@H](C(=O)C[C@@H](Cc1ccccc1)C(=O)O)C(C)C (stereo in doubt; 1c-B)
No. of mice: 12

compound: CC(C)C(CC(=O)[C@H](CC(=O)O)NC(=O)C(CCCCN)N(C)C(=O)[C@@H](N)CCCN=C(N)N)C(=O)N[C@@H](Cc1ccccc1)C(=O)O (stereo partly drawn)
No. of mice: 8

Now turn to the next compound.
Exercise: What does the data say about its No. of mice? Entry: CCCC[C@H](NC(=O)[C@@H](N)CCCN=C(N)N)C(=O)N[C@@H](CC(=O)O)C(=O)N[C@H](C(=O)C[C@@H](Cc1ccccc1)C(=O)O)C(C)C (stereo in doubt; 1c-A)
Key: 8

----------
# Test system: Mus musculus
# assay.protocol: On set and incidence of arthritis in the Mouse Type II collagen model at 0.5 dose mg/kg on day 37, expressed as number of mice treated out of 12 tested
# Assay type: functional
Reported values of No. of mice for individual entries
Response field accepts a number only; no unit should be typed.

Past entries and their recorded results:
compound: CCCC[C@@H](C(=O)N[C@@H](CC(=O)O)C(=O)N[C@H](C(=O)C[C@H](Cc1ccccc1)C(=O)O)C(C)C)N(C)C(=O)[C@@H](N)CCCN=C(N)N
measurement.label: No. of mice
numeric.readout: 7
--
compound: CCCC[C@H](NC(=O)[C@@H](N)CCCN=C(N)N)C(=O)N[C@@H](CC(=O)O)C(=O)N[C@H](C(=O)C[C@@H](Cc1ccccc1)C(=O)O)C(C)C (stereo in doubt; 1c-A)
measurement.label: No. of mice
numeric.readout: 9

Now turn to the next compound.
Exercise: What does the data say about its No. of mice? Entry: CC(C)[C@H](NC(=O)[C@H](CC(=O)O)NC(=O)[C@@H]1CCCN1C(=O)[C@@H](N)CCCN=C(N)N)C(=O)C[C@@H](Cc1ccccc1)C(=O)O (stereo in doubt; 1b-B)
Key: 9

----------
# Test system: Mus musculus
# assay.protocol: On set and incidence of arthritis in the Mouse Type II collagen model at 0.5 dose mg/kg on day 37, expressed as number of mice treated out of 12 tested
# Type: functional
Reported values of No. of mice for individual entries
Response field accepts a number only; no unit should be typed.

molecule: CC(C)C(CC(=O)[C@H](CC(=O)O)NC(=O)C(CCCCN)N(C)C(=O)[C@@H](N)CCCN=C(N)N)C(=O)N[C@@H](Cc1ccccc1)C(=O)O (stereo partly drawn)
No. of mice: 4
--
molecule: CCCC[C@H](NC(=O)[C@@H](N)CCCN=C(N)N)C(=O)N[C@@H](CC(=O)O)C(=O)N[C@H](C(=O)C[C@@H](Cc1ccccc1)C(=O)O)C(C)C (stereo in doubt; 1c-B)
No. of mice: 11

Now turn to the next molecule.
Exercise: Form field: No. of mice recorded for CC(C)[C@H](NC(=O)[C@H](CC(=O)O)NC(=O)[C@H](CCCCN)NC(=O)[C@@H](N)CCCN=C(N)N)C(=O)C[C@@H](Cc1ccccc1)C(=O)O with Mus musculus (enter value)
Key: 7

----------
# Tested on: Mus musculus
# assay.protocol: On set and incidence of arthritis in the Mouse Type II collagen model at 0.5 dose mg/kg on day 44, expressed as number of mice treated out of 12 tested
# Format: functional
Please assign not fulfilled whenever No. of mice is at or above 9, and fulfilled whenever it is below.

Solved cases below.
compound: CCCC[C@@H](C(=O)N[C@@H](CC(=O)O)C(=O)N[C@H](C(=O)C[C@H](Cc1ccccc1)C(=O)O)C(C)C)N(C)C(=O)[C@@H](N)CCCN=C(N)N
class.label: fulfilled

compound: CCCCC(NC(=O)[C@H](CCCN=C(N)N)NC(C)=O)C(=O)N[C@@H](CC(=O)O)C(=O)NC(C(=O)C[C@@H](Cc1ccccc1)C(=O)O)C(C)C (stereo not given in full)
class.label: not fulfilled

compound: CC(C)[C@H](NC(=O)[C@H](CC(=O)O)NC(=O)[C@H](CCCCN)NC(=O)[C@@H](N)CCCN=C(N)N)C(=O)C[C@@H](Cc1ccccc1)C(=O)O
class.label: fulfilled

Now consider a different compound.
Exercise: Quick check: No. of mice of CC(C)[C@H](NC(=O)[C@H](CC(=O)O)NC(=O)[C@@H]1CCCN1C(=O)[C@@H](N)CCCN=C(N)N)C(=O)C[C@@H](Cc1ccccc1)C(=O)O (stereo in doubt; 1b-B) under 9?
Key: not fulfilled

----------
# Tested on: Mus musculus
# assay.protocol: On set and incidence of arthritis in the Mouse Type II collagen model at 0.5 dose mg/kg on day 37, expressed as ratio of number treated to that of control
# Format: functional
Reported values of No. of mice for individual entries
Response field accepts a number only; no unit should be typed.

Past entries and their recorded results:
molecule: CCCCC(CC(=O)[C@@H](N)CCCN=C(N)N)C(=O)N[C@@H](CC(=O)O)C(=O)NC(C(=O)C[C@H](C(=O)O)C(C)C)C(C)C (stereo in doubt; 1h-A)
No. of mice: 10
//
molecule: CC(C)[C@H](CC(=O)[C@H](CC(=O)O)NC(=O)[C@H](CCCCN)NC(=O)[C@@H](N)CCCN=C(N)N)C(=O)N[C@@H](Cc1ccccc1)C(=O)O (stereo in doubt; 3a-A)
No. of mice: 8

Exercise: What does the data say about its No. of mice? Entry: CCCC[C@@H](C(=O)N[C@@H](CC(=O)O)C(=O)N[C@H](C(=O)C[C@H](C(=O)O)C(C)C)C(C)C)N(C)C(=O)[C@@H](N)CCCN=C(N)N (stereo in doubt; 1m-A)
Key: 6

Exercise: Could you do the same for CC(CC(=O)[C@H](CC(=O)O)NC(=O)C(CCCCN)NC(=O)[C@@H](N)CCCN=C(N)N)C(=O)NC(Cc1ccccc1)C(=O)O (stereo in doubt; 3e-B) , please?
Key: 11

Exercise: Could you do the same for CC(CC(=O)[C@H](CC(=O)O)NC(=O)C(CCCCN)NC(=O)[C@@H](N)CCCN=C(N)N)C(=O)NC(Cc1ccccc1)C(=O)O (stereo in doubt; 3e-A) , please?
Key: 9

----------
# Test system: Mus musculus
# assay.protocol: On set and incidence of arthritis in the Mouse Type II collagen model at 0.5 dose mg/kg on day 37, expressed as ratio of number treated to that of control
# Format: functional
measurement.label: No. of mice

compound: CCCC[C@@H](C(=O)N[C@@H](CC(=O)O)C(=O)N[C@H](C(=O)C[C@H](C(=O)O)C(C)C)C(C)C)N(C)C(=O)[C@@H](N)CCCN=C(N)N (stereo in doubt; 1m-B)
No. of mice: 11

Exercise: Form field: No. of mice recorded for CCCCC(CC(=O)[C@@H](N)CCCN=C(N)N)C(=O)N[C@@H](CC(=O)O)C(=O)NC(C(=O)C[C@H](C(=O)O)C(C)C)C(C)C (stereo in doubt; 1h-B) with Mus musculus (enter value)
Key: 7

Exercise: Could you do the same for CC(C)C(CC(=O)[C@H](CC(=O)O)NC(=O)C(CCCCN)NC(=O)[C@@H](N)CCCN=C(N)N)C(=O)NC(Cc1ccc(O)cc1)C(=O)O (stereo partly specified) , please?
Key: 11

Exercise: Could you do the same for CCCC[C@H](NC(=O)[C@@H](N)CCCN=C(N)N)C(=O)N[C@@H](CC(=O)O)C(=O)C[C@H](C)C(=O)O , please?
Key: 11

Exercise: Could you do the same for CC(C)[C@H](CC(=O)[C@H](CC(=O)O)NC(=O)[C@H](CCCCN)NC(=O)[C@@H](N)CCCN=C(N)N)C(=O)N[C@@H](Cc1ccccc1)C(=O)O (stereo in doubt; 3a-B) , please?
Key: 11

Exercise: Could you do the same for CCCCC(CC(=O)[C@@H](N)CCCN=C(N)N)C(=O)N[C@@H](CC(=O)O)C(=O)NC(C(=O)N[C@@H](Cc1ccccc1)C(=O)O)C(C)C (stereo partly specified) , please?
Key: 7
